Values were extracted from the supplement of paper PMC10567573.

# ASSAY_NOTES: protein stability index of a GFP-peptide fusion (GPS, HEK-293T) (PSI 1-6); higher = more stable;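 also: 24-mer peptide tiles fused after GFP, lentivirally expressed, FACS-sorted into six equal bins by GFP/DsRed ratio, decoded by Illumina sequencing, PSI is the read-weighted mean bin number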
# SETUP_CONDITIONS: treatment: MLN4924 1 uM, 8 h; c terminus: a fixed tail appended
MEASUREMENT_KIND: protein stability index

Study these solved cases before continuing.
{"PRIMARY_SEQUENCE": "TKRSSRNPVFQDSWDTESSGSDSG [FAM104A]", "protein stability index": 5.22}
{"PRIMARY_SEQUENCE": "GNEKITMQNLNDRLASYLDKVRAL [KRT15]", "protein stability index": 2.78}
{"PRIMARY_SEQUENCE": "LGKLPPQYALELLTVYAWERGSMK [OAS1]", "protein stability index": 2.36}
{"PRIMARY_SEQUENCE": "RLFQVVGKTDDTLALLNLACMMTI [TMEM175]", "protein stability index": 2.65}
{"PRIMARY_SEQUENCE": "SMLLQRFSVAPHETQTQRGGEFQC [RNF180]", "protein stability index": 3.31}
{"PRIMARY_SEQUENCE": "PYFLFQHWATGYSKSSHPLIRSLF [SOAT1]", "protein stability index": 2.34}
{"PRIMARY_SEQUENCE": "VFLASGAVSVMKKCRKLEDPQSSS [SLC19A2]", "protein stability index": 2.98}
{"PRIMARY_SEQUENCE": "PMPLSEGKSILLFGGAAAVAILAV [BCL2L13]", "protein stability index": 2.75}
{"PRIMARY_SEQUENCE": "KKKTKVLKQRTVIEMFKSITHSTV [EHMT1]", "protein stability index": 2.19}
{"PRIMARY_SEQUENCE": "YRLTEHERAHKGEKPYGCSECGKA [ZNF649]", "protein stability index": 4.85}

Field: protein stability index. Fill in for each record below.
1. ALKKSADWVSDWSSRPENIPPKEF [BNIP3L]
2. DCLLCFPETLPESSLFSVEANSSN [C8orf76]
3. ELFAWGRGDSGRLGLGTRESHSCP [NEK8]
4. QEKDQEMERLRELQRASILDMRRD [FBF1]
5. PVHLIDKLPLPVTIKSHLKSFSMA [RAB40C]
6. NEIFTQLYRTLFSVINNGHNQKVH [PDS5B]

A:
3.77
3.58
3.27
4.79
2.34
2.47
